EXPERIMENT NOTES: qHTS of pediatric cancer cell lines to identify multiple opportunities for drug repurposing: Primary screen for Rh30 cells (AID 1347107); also: nearly all actives have a fitted effect of over 75% in size
ASSAY SETUP: Rh30 rhabdomyosarcoma viability, CellTiter-Glo luminescence, 48 h; series mostly up to 46 µM
Records with an inconclusive call do not appear. The source made the active and inactive calls. Calls follow the shape of the dose curve; as a rule, active = well fitted cell-killing curve with a large enough effect; inconclusive = small, poorly fitted or top-dose-only effect; inactive = no such curve, though single readings can be large or run the other way.
Outcomes you can answer with include only these: yes = active, no = inactive

// below: answered molecules
>  <MOLECULE>
CC(C)N1[N]C(=C2C=c3cc(O)ccc3=N2)c2c(N)ncnc21

>  <CAT>
yes

$$$$
>  <MOLECULE>
CON=C(C(=O)N[C@@H]1C(=O)N2C(C(=O)O)=C(CSC(=O)c3ccco3)CS[C@H]12)c1csc(N)n1

>  <CAT>
no

$$$$
>  <MOLECULE>
C[C@H]1C[C@H]2[C@@H]3CCC4=CC(=O)C=C[C@]4(C)[C@@H]3C(=O)C[C@]2(C)[C@@]1(O)C(=O)CO

>  <CAT>
no

$$$$
>  <MOLECULE>
C[N+]1(C)[C@@H]2C[C@@H](OC(=O)C(O)(c3cccs3)c3cccs3)C[C@H]1[C@@H]1O[C@@H]12

>  <CAT>
no

$$$$
>  <MOLECULE>
O=C(c1ccc(F)cc1)N1CCC[C@H](c2nc(-c3ccc(F)cc3)no2)C1

>  <CAT>
no

$$$$
>  <MOLECULE>
Cn1cc(C=CC(=O)c2cccc(F)c2)cc1C=CC(=O)NO

>  <CAT>
no

$$$$
>  <MOLECULE>
C[C@@H]1C(=O)O[C@H]2CC34[C@H]5C[C@@H](C(C)(C)C)C36[C@H](OC(=O)[C@@H]6O)O[C@@]4(C(=O)O5)[C@]21O (stereo partly drawn)

>  <CAT>
no

$$$$

Attention now shifts to the item below.
Query: For this molecule, state the assay outcome: CCOC(=O)N1CCN([N+]([O-])=NOc2ccc([N+](=O)[O-])cc2[N+](=O)[O-])CC1
Reply: no

###

EXPERIMENT NOTES: qHTS of pediatric cancer cell lines to identify multiple opportunities for drug repurposing: Primary screen for DAOY cells (AID 1347090); also: nearly all actives have a fitted effect of over 55% in size
ASSAY SETUP: DAOY medulloblastoma viability, CellTiter-Glo luminescence, 48 h; series mostly up to 46 µM
Method: Drug repurposing or repositioning has been offered as a strategy for drug development in oncology programs. […] [1] Shen, M et al. Quantitative high-throughput phenotypic screening of pediatric cancer cell lines identifies multiple opportunities for drug repurposing. […] Cells were assayed in growth media at a density of 500-1,000 cells/well. […] After a 15 min incubation at room temperature, samples were analyzed for luminescence intensity using a ViewLux High-throughput CCD imager equipped with clear filters.
Inconclusive results are not listed. Activity calls are given as the source filed them. The call rests on the fitted dose curve; in most records, active means well fitted cell-killing curve with a large enough effect; inconclusive means small, poorly fitted or top-dose-only effect; inactive means flat fitted curve, though single readings scatter.
Outcomes you can answer with include only these: 1 (active), -1 (inactive)

// below: answered compounds
>  <COMPOUND>
CC[C@H](CC[C@@H](C)[C@H]1CC[C@H]2[C@@H]3CC=C4C[C@@H](O)CC[C@]4(C)[C@@H]3CC[C@]12C)C(C)C

>  <CAT>
-1

$$$$
>  <COMPOUND>
O=C(NNC(=O)c1ccc(CNS(=O)(=O)c2ccc(F)c(Cl)c2)cc1)c1ccccc1

>  <CAT>
-1

$$$$
>  <COMPOUND>
CCc1cc(C(C)=NOCc2ccc(C3CCCCC3)c(C(F)(F)F)c2)ccc1CN1CC(C(=O)O)C1

>  <CAT>
1

$$$$
>  <COMPOUND>
NC(=O)c1ncn([C@@H]2O[C@H](CO)[C@@H](O)[C@@H]2O)c1N

>  <CAT>
-1

$$$$
>  <COMPOUND>
CN1[C@H]2CC(OC(=O)[C@@H](CO)c3ccccc3)C[C@H]1[C@H]1O[C@H]12 (some centres undefined)

>  <CAT>
-1

$$$$
>  <COMPOUND>
C=C1C(=CC=C2CCC[C@]3(C)[C@@H]([C@H](C)CCCC(C)(C)O)CC[C@@H]23)C[C@@H](O)C[C@@H]1O

>  <CAT>
1

$$$$

Query: For this compound, state the assay outcome: Oc1ccc(-c2ccc(-c3cc(Nc4cccc(CNC5CC5)c4)n[nH]3)cc2)c(O)c1
Reply: 1

Query: For this compound, state the assay outcome: CC(C)(C)[N+]([O-])=Cc1ccc(S(=O)(=O)O)cc1S(=O)(=O)O
Reply: -1

Query: For this compound, state the assay outcome: COc1cc(OC)c(NC(=O)Nc2cc(C)on2)cc1Cl
Reply: -1

Values from PubChem BioAssay (NCATS)
